Each recorded value in this set is attributed to ChEMBL document CHEMBL4699420.

# Method description: Metal chelating activity assessed as compound-Fe2+ complex formation by measuring precipitation at 10 uM incubated with radilolabeled-55Fe2+ for 15 mins in aqueous buffer of pH 7.4 by scintillation counting analysis
Calls of active or inactive are those of the source. The calls are words filed in the database; no cut-off is given here.
Outcomes you can answer with include only these: YES = active, NO = inactive

Cc1nn(-c2ccccn2)c(O)c1C(=O)Nc1cccc(C(F)(F)F)c1 YES

Input line: Assay outcome for `Cc1cc(O)nc(-n2nc(C)cc2C)n1` : what was it?
Output line: NO

Input line: Now consider `Cc1cc(=O)[nH]c(-n2nc3c(c2C)CCCC3)n1` .
Output line: YES

Input line: Now consider `N=C(N)SCc1cccc2c1oc1c(CSC(=N)N)cccc12` .
Output line: NO
